IC50 overview
- EXPERIMENTAL TARGET: human CGT (ceramide galactosyltransferase), CHO/CGT lysate (Homo sapiens, UniProt Q16880)
- Construct: Full-length human CGT cDNA was cloned into the BamH1/Xho1 site of pcDNA3.1 (+); expressed in transfected cells; host or cells: Chinese hamster ovary (CHO) cells; lysate prepared with M-PER
- Sequence (Q16880 21-541): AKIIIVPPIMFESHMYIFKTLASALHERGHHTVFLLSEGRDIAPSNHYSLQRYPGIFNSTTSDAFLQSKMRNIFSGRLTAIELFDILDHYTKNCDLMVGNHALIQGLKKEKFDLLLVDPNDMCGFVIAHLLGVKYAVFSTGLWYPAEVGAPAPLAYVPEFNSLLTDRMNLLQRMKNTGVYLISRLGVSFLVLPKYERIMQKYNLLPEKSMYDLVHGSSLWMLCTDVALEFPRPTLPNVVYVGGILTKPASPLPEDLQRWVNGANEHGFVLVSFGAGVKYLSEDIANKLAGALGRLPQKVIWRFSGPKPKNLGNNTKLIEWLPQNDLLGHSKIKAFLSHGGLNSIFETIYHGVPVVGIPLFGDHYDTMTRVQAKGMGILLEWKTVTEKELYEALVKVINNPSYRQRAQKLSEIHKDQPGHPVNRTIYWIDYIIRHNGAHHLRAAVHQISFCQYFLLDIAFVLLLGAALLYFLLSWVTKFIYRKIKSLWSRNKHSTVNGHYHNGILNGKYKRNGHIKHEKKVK
- METHOD DESCRIPTION: CGT enzyme assay, RapidFire/MS/MS readout (Table 1 ranges with one asterisk *)
- Type: biochemical
- DETAILS: RapidFire method (range with one asterisk *)
Where a name gives a salt, the structure may show the parent alone.

MOLECULE	EXPERIMENTAL TARGET	IC50
NCC1CCN(C(=O)[C@H](NS(=O)(=O)c2ccc3cc(OC4CCCC4)ccc3c2)C(F)(F)c2ccc(Br)cc2)CC1 [Compound 57-2, trifluoroacetate]	human CGT (ceramide galactosyltransferase), CHO/CGT lysate (Homo sapiens, UniProt Q16880)	10 to 30 µM
O=C([C@H](NS(=O)(=O)c1ccc2cc(OC3CCCC3)ccc2c1)C(F)(F)c1ccc(-c2ccc(Cl)cc2)cc1)N1CCNCC1 [Compound 137-2, trifluoroacetate]	human CGT (ceramide galactosyltransferase), CHO/CGT lysate (Homo sapiens, UniProt Q16880)	10 to 30 µM
CCCCOc1cc(C(F)(F)[C@H](NS(=O)(=O)c2ccc3cc(OC4CCCC4)ccc3c2)C(=O)N2CCC(N)CC2)ccc1Cl	human CGT (ceramide galactosyltransferase), CHO/CGT lysate (Homo sapiens, UniProt Q16880)	< 1 µM
NC1CC2CCC(C1)N2C(=O)[C@@H](NC(=O)[C@@H](O)c1ccc2cc(OC3CCCC3)ccc2c1)C(F)(F)c1ccc(-c2ccc(Cl)cc2)cc1 (stereo partly shown) [Compound 136-3, trifluoroacetate]	human CGT (ceramide galactosyltransferase), CHO/CGT lysate (Homo sapiens, UniProt Q16880)	1 to 10 µM
CCCCOc1cccc(C(F)(F)[C@@H](NS(=O)(=O)c2ccc3cc(OC4CCCC4)ccc3c2)C(=O)N2C3CCC2CC(N)C3)c1 (stereo partly shown) [Compound 90-2, trifluoroacetate]	human CGT (ceramide galactosyltransferase), CHO/CGT lysate (Homo sapiens, UniProt Q16880)	1 to 10 µM
CCCCOc1ccc(C(F)(F)[C@@H](NS(=O)(=O)c2ccc3cc(OC4CCCC4)ccc3c2)C(=O)N2C3CCC2CC(N)C3)cc1 (stereo partly shown) [Compound 82-2, trifluoroacetate]	human CGT (ceramide galactosyltransferase), CHO/CGT lysate (Homo sapiens, UniProt Q16880)	1 to 10 µM
NC1CC2CCC(C1)N2C(=O)[C@H](NS(=O)(=O)c1ccc2c(cnn2CC2CCCC2)c1)C(F)(F)c1ccc(Br)cc1 (stereo partly shown)	human CGT (ceramide galactosyltransferase), CHO/CGT lysate (Homo sapiens, UniProt Q16880)	30 to 100 µM
CN([C@@H](C(=O)N1C2CCC1CC(N)C2)C(F)(F)c1ccc(OCc2ccccc2)cc1)S(=O)(=O)c1ccc2cc(OC3CCCC3)ccc2c1 (stereo partly shown)	human CGT (ceramide galactosyltransferase), CHO/CGT lysate (Homo sapiens, UniProt Q16880)	1 to 10 µM
CN([C@H](C(=O)N1C2CCC1CC(N)C2)C(F)(F)c1ccc(Cl)cc1)S(=O)(=O)c1ccc2cc(OC3CCCC3)ccc2c1 (stereo partly shown)	human CGT (ceramide galactosyltransferase), CHO/CGT lysate (Homo sapiens, UniProt Q16880)	< 1 µM
NC1CC2CCC(C1)N2C(=O)[C@@H](NS(=O)(=O)c1ccc2cc(OC3CCCC3)ccc2c1)C(F)(F)c1ccc(Oc2ccccc2)cc1 (stereo partly shown) [Compound 86-1, trifluoroacetate]	human CGT (ceramide galactosyltransferase), CHO/CGT lysate (Homo sapiens, UniProt Q16880)	< 1 µM
NC1CC2CCC(C1)N2C(=O)[C@@H](NS(=O)(=O)c1ccc(OCC2CCCCC2)cc1)C(F)(F)c1ccc2cc(Br)ccc2c1 (stereo partly shown)	human CGT (ceramide galactosyltransferase), CHO/CGT lysate (Homo sapiens, UniProt Q16880)	1 to 10 µM
NC1CC2CCC(C1)N2C(=O)[C@@H](NS(=O)(=O)c1ccc(OCC2CCCCC2)cc1)C(F)(F)c1ccc(C(F)(F)F)cc1 (stereo partly shown)	human CGT (ceramide galactosyltransferase), CHO/CGT lysate (Homo sapiens, UniProt Q16880)	< 1 µM
NC1CC2CCC(C1)N2C(=O)[C@@H](NS(=O)(=O)c1ccc2cc(OC3CCCC3)ccc2c1)C(F)(F)c1ccc(-c2ccc(Cl)s2)cc1 (stereo partly shown)	human CGT (ceramide galactosyltransferase), CHO/CGT lysate (Homo sapiens, UniProt Q16880)	< 1 µM
NC1CCN(C(=O)[C@@H](NS(=O)(=O)c2ccc3cc(OC4CCCC4)ccc3c2)C(F)(F)c2cccc(-c3ccccc3)c2)CC1 [Compound 69-1, trifluoroacetate]	human CGT (ceramide galactosyltransferase), CHO/CGT lysate (Homo sapiens, UniProt Q16880)	1 to 10 µM
NC1CC2CCC(C1)N2C(=O)[C@@H](NS(=O)(=O)c1ccc2c(cnn2CC2CCCC2)c1)C(F)(F)c1ccc(-c2ccc(Cl)cc2)cc1 (stereo partly shown)	human CGT (ceramide galactosyltransferase), CHO/CGT lysate (Homo sapiens, UniProt Q16880)	1 to 10 µM
CN([C@@H](C(=O)N1C2CCC1CC(N)C2)C(F)(F)c1ccc(Oc2ccccc2)cc1)S(=O)(=O)c1ccc2cc(OC3CCCC3)ccc2c1 (stereo partly shown) [Compound 87-2, trifluoroacetate]	human CGT (ceramide galactosyltransferase), CHO/CGT lysate (Homo sapiens, UniProt Q16880)	1 to 10 µM

The measured values listed here are drawn from patent US20190322676A1.
